// data source = BindingDB's records for doi:10.1080/14756360701404100

- MEASURED ON: Carbonic anhydrase 1 (Homo sapiens)
- Sequence (P00915 whole entry): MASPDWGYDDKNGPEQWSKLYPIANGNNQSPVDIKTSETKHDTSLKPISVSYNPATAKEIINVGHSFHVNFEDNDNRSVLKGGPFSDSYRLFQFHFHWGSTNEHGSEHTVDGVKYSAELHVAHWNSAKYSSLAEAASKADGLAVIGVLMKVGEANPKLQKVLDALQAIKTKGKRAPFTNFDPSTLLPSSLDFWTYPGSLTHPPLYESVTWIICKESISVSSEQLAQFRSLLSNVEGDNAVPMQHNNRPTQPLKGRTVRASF
- PROCEDURE TEXT: Esterase Activity Assay
- CONDITION: pH 10
PROPERTY LABEL: pIC50
// pIC50 is dimensionless: -log10 of concentration (M)

| GIVEN SMILES | MEASURED ON | RECORDED NUMBER |
| --- | --- | --- |
| Cc1ccccc1-c1cc2cc(O)c(O)cc2oc1=O | Carbonic anhydrase 1 (Homo sapiens) | 3.82 |

Need pIC50, item "Cc1cccc(-c2cc3cc(O)c(O)cc3oc2=O)c1"
3.08

Do the same for "Cc1ccc(-c2cc3cc(O)c(O)cc3oc2=O)cc1" please
3.59

Do the same for "O=c1oc2cc(O)c(O)cc2cc1-c1ccccc1" please
3.80
